System: FAB9
Assay: qHTS profiling for inhibitors of Plasmodium falciparum proliferation (AID 504749); further: nearly all actives have a fitted effect of over 60% in size
Settings: P. falciparum in erythrocytes, SYBR Green DNA, 72 h; series mostly up to 28.7 µM
Results filed as inconclusive are left out. The source made the active and inactive calls. The call rests on the fitted dose curve; in most records, active means well fitted inhibition curve with a large enough effect; inconclusive means small, poorly fitted or top-dose-only effect; inactive means flat fitted curve, though single readings scatter.
Possible outcomes: 1.0 = active, 0.0 = inactive

compound="CC12C=CC(=O)C=C1[C@@H](F)CC1C2C(O)CC2(C)C1CC[C@]2(O)C(=O)CO (stereo partly specified)" tested_system=FAB9 group_label=0.0
compound=CCCC[C@H](O)c1ccccc1 tested_system=FAB9 group_label=0.0
compound="Nc1ncn(C2C[C@H](O)[C@@H](CO)O2)c(=O)n1 (stereo partly specified)" tested_system=FAB9 group_label=0.0
compound=CC(C)(C)NC[C@H](O)CSc1nc(-c2ccc(C(N)=O)s2)cs1 tested_system=FAB9 group_label=0.0
compound=COc1ccc(C(=O)/C(Br)=C/C(=O)O)cc1 tested_system=FAB9 group_label=0.0
compound=C=C1C(=O)O[C@@H]2[C@@H]1CC/C(C)=C\CC[C@@]1(C)O[C@H]21 tested_system=FAB9 group_label=0.0
compound="C=NC(C(=O)NC1C(=O)N2C1SC(C)(C)C2C(=O)O)c1ccccc1 (stereo unspecified)" tested_system=FAB9 group_label=0.0
compound=CCCC[C@H]1C(=O)N(c2ccccc2)N(c2ccc(O)cc2)C1=O tested_system=FAB9 group_label=0.0
compound="CCCC(=O)O[C@]1(C(=O)COC(C)=O)CC[C@H]2C3C[C@H](F)C4=CC(=O)C=CC4(C)[C@@]3(F)[C@@H](O)CC21C (stereo partly specified)" tested_system=FAB9 group_label=0.0
compound="O=C1Oc2ccccc2C(=O)C1C(CC(O)c1ccc(-c2ccc(Br)cc2)cc1)c1ccccc1 (stereo unspecified)" tested_system=FAB9 group_label=0.0
compound=Nc1nc(F)nc2c1ncn2[C@@H]1O[C@H](CO)[C@@H](O)[C@H]1O tested_system=FAB9 group_label=0.0
compound=CO/N=C(/C(=O)N[C@@H]1C(=O)N2C(C(=O)O)=C(CSc3cnns3)CS[C@H]12)c1csc(N)n1 tested_system=FAB9 group_label=0.0
compound="Nc1nc(Cl)nc2c1ncn2[C@@H]1O[C@H](CO)[C@H](O)C1F (stereo partly specified)" tested_system=FAB9 group_label=0.0
compound="COC(c1ccccc1)(c1ccccc1)C(Oc1nc(C)cc(C)n1)C(=O)O (stereo unspecified)" tested_system=FAB9 group_label=0.0
compound=C[C@@](Cc1ccccc1)(NC(=O)CN)c1ccccc1 tested_system=FAB9 group_label=0.0
compound=CCCSS/C(CCO)=C(/C)N(C=O)Cc1cnc(C)nc1N tested_system=FAB9 group_label=0.0
compound=CC1=C(/C=C/C(C)=C\C=C\C(C)=C\C=C\C=C(C)\C=C\C=C(C)\C=C\C2=C(C)C[C@@H](O)CC2(C)C)C(C)(C)C[C@H](O)C1 tested_system=FAB9 group_label=0.0
compound=CC[C@@]1(O)C[C@H](O[C@H]2C[C@@H](N(C)C)[C@@H](O[C@H]3C[C@@H](O)[C@@H](O[C@H]4CCC(=O)[C@@H](C)O4)[C@@H](C)O3)[C@@H](C)O2)c2c(cc3c(c2O)C(=O)c2c(O)cccc2C3=O)[C@H]1C(=O)OC tested_system=FAB9 group_label=1.0
compound="CC(=O)OC1C([N+]2(C)CCCCC2)C[C@H]2C3CC[C@H]4C[C@H](OC(C)=O)C([N+]5(C)CCCCC5)CC4(C)C3CCC12C (stereo partly specified)" tested_system=FAB9 group_label=0.0
compound="CC(C)CCCC(C)C1CC(=O)C2=C3CCC4CC(O)CCC4(C)C3CCC21C (stereo unspecified)" tested_system=FAB9 group_label=0.0
compound="C/C1=C2/[N-]C(C(CC(N)=O)[C@@]2(C)CCC(=O)NCC(C)OP(=O)([O-])O[C@H]2[C@@H](O)[C@@H](n3cnc4cc(C)c(C)cc43)O[C@@H]2CO)[C@]2(C)N=C(/C(C)=C3N=C(/C=C4N=C1C(CCC(N)=O)C\\4(C)C)[C@@H](CCC(N)=O)[C@]\\3(C)CC(N)=O)[C@@H](CCC(N)=O)[C@]2(C)CC(N)=O.CC(=O)O.[Co] (stereo partly specified)" tested_system=FAB9 group_label=0.0
compound="CC[C@H]1OC(=O)[C@H](C)C(=O)[C@H](C)[C@@H](OC2O[C@H](C)C[C@H](N(C)C)[C@@H]2O)[C@@](C)(OC)C[C@@H](C)C(=O)[C@@H](C)C2N(CCCCn3cnc(-c4cccnc4)c3)C(=O)O[C@@]21C (stereo partly specified)" tested_system=FAB9 group_label=0.0
compound=CC[C@@H]1/C=C(\C)C[C@H](C)C[C@H](OC)[C@H]2O[C@@](O)(C(=O)C(=O)N3CCCC[C@H]3C(=O)O[C@H](/C(C)=C/[C@@H]3CC[C@H](Cl)[C@H](OC)C3)[C@H](C)[C@@H](O)CC1=O)[C@H](C)C[C@@H]2OC tested_system=FAB9 group_label=0.0
compound="CC(c1ncncc1F)[C@](O)(Cn1cncn1)c1ccc(F)cc1F (stereo partly specified)" tested_system=FAB9 group_label=0.0
compound="C[C@@H]1CC2[C@@H]3C[C@H](F)C4=CC(=O)C(Cl)=C[C@]4(C)[C@@]3(F)[C@H](O)C[C@]2(C)[C@@]1(O)C(=O)CO (stereo partly specified)" tested_system=FAB9 group_label=0.0
compound="CCC1OC(=O)C[C@@H](O)[C@H](C)[C@@H](OC2OC(C)CC(N(C)C)C2O)[C@@H](CC=O)C[C@@H](C)C(=O)/C=C/[C@]2(C)OC2C1C (stereo partly specified)" tested_system=FAB9 group_label=0.0

----------
Test system: CP191
Assay: qHTS profiling for inhibitors of Plasmodium falciparum proliferation (AID 504749); further: nearly all actives have a fitted effect of over 60% in size
Conditions: P. falciparum in erythrocytes, SYBR Green DNA, 72 h; series mostly up to 28.7 µM
Results filed as inconclusive are left out. The source made the active and inactive calls. Calls come from the whole dose curve; as a rule, active = well fitted inhibition curve with a large enough effect; inconclusive = small, poorly fitted or top-dose-only effect; inactive = flat fitted curve, though single readings scatter.
Possible outcomes: class 1 for active, class 0 for inactive

molecule="NC[C@@H]1O[C@H](OC2[C@@H](CO)O[C@@H](OC3[C@H](O)[C@H](N)C[C@H](N)[C@H]3OC3O[C@H](CO)[C@@H](O)[C@H](O)[C@@H]3N)[C@H]2O)C(N)[C@H](O)[C@@H]1O (stereo not given in full)" group_label="class 0"
molecule="Nc1nc2[nH]cc(CCc3ccc(C(=O)NC(CCC(=O)O)C(=O)O)cc3)c2c(=O)[nH]1 (stereo not given)" group_label="class 1"
molecule="COc1cccc(OC)c1C(=O)NC1C(=O)N2C1SC(C)(C)C2C(=O)O (stereo not given)" group_label="class 0"
molecule="OCCN1CC(O)C(O)C(O)C1CO (stereo not given)" group_label="class 0"
molecule="CCCCC(=O)O[C@]1(C(=O)CO)CCC2C3CCC4=CC(=O)CCC4(C)C3C(O)CC21C (stereo not given in full)" group_label="class 0"

----------
System: CP260
Experiment: qHTS profiling for inhibitors of Plasmodium falciparum proliferation (AID 504749); further: nearly all actives have a fitted effect of over 60% in size
Settings: P. falciparum in erythrocytes, SYBR Green DNA, 72 h; series mostly up to 28.7 µM
Results filed as inconclusive are left out. Calls of active or inactive are those of the source. Calls follow the shape of the dose curve; as a rule, active = well fitted inhibition curve with a large enough effect; inconclusive = small, poorly fitted or top-dose-only effect; inactive = flat fitted curve, though single readings scatter.
Possible outcomes: active, inactive

compound="CC1CCC(O)C/C1=C\\C=C1/CCCC2(C)C1CCC2C(C)/C=C/C(C)C(C)C (centres undefined)" group_label=inactive
compound="CCOC(=O)C(CCc1ccccc1)NC(C)C(=O)N1Cc2cc(OC)c(OC)cc2CC1C(=O)O (centres undefined)" group_label=inactive
compound=O=C(O)[C@H]1C[C@@H](CP(=O)(O)O)CCN1 group_label=inactive
compound="COC1CC2CCC(C)[C@](O)(O2)C(=O)C(=O)N2CCCCC2C(=O)OC(C(C)CC2CCC(O)C(OC)C2)CC(=O)C(C)/C=C(/C)C(O)C(OC)C(=O)C(C)CC(C)C=CC=C/C=C\\1C (some centres undefined)" group_label=active
compound="O=C1NC(=O)C2C3C=CC(C3)C12 (centres undefined)" group_label=inactive
compound=CCCSS/C(CCO)=C(/C)N(C=O)Cc1cnc(C)nc1N group_label=inactive
compound="CC(C)(C)C(=O)OCC(=O)C1CCC2C3CCC4=CC(=O)CCC4(C)C3CCC12C (centres undefined)" group_label=inactive
compound=CC1=C(/C=C/C(C)=C\C=C\C(C)=C\C=C\C=C(C)\C=C\C=C(C)\C=C\C2=C(C)C[C@@H](O)CC2(C)C)C(C)(C)C[C@H](O)C1 group_label=active
compound="CC[C@@]1(O)CC2CN(CCc3c([nH]c4ccccc34)[C@](C(=O)OC)(c3cc4c(cc3OC)N(C)C3[C@@](O)(C(=O)OC)C(OC(C)=O)[C@]5(CC)C=CCN6CC[C@@]43C65)C2)C1 (some centres undefined)" group_label=active
compound=Cc1ccccc1N1C(=O)c2cc(N)ccc2N/C1=C\F group_label=inactive
compound=C=C(NCc1ccccc1)c1ccccc1O group_label=inactive
compound="CCC(=O)O[C@]1(C(=O)CCl)[C@@H](C)CC2C3C[C@H](F)C4=CC(=O)C=CC4(C)[C@@]3(F)C(O)CC21C (some centres undefined)" group_label=active
compound="NCCCCC(N)C(=O)O (centres undefined)" group_label=inactive
compound="Cc1ccc(S(=O)(=O)NC(=O)NC(C)Cc2ccccc2)cc1 (centres undefined)" group_label=inactive
compound="Cc1c(C)c2c(c(C)c1O)CCC(C)(CCCC(C)CCCC(C)CCCC(C)C)O2 (centres undefined)" group_label=inactive
compound="NC(CSSCC(N)C(=O)O)C(=O)O (centres undefined)" group_label=inactive
compound=O=C1[C@@H]2C[C@@H]3C[C@H]1C[C@@](O)(C3)C2 group_label=inactive
compound="OCCOC[C@H]1O[C@H](OCCO)[C@H](OCCO)[C@@H](OCCO)[C@@H]1OCCO (tested in a mixture with another compound)" group_label=inactive
compound="O=C1Oc2ccccc2C(=O)C1C(CC(O)c1ccc(-c2ccc(Br)cc2)cc1)c1ccccc1 (centres undefined)" group_label=inactive
